# target entity: AncCDT-1
# assay procedure: isothermal titration calorimetry
# reported conditions: 20 mM Na2HPO4, 150 mM NaCl, pH 7.4, 25 °C; on-column refolded protein
outcome measure: Kd (nM)

smiles entry | target entity | outcome measure | recorded measurement
NCCCC[C@H](N)C(=O)O | AncCDT-1 | Kd | 6700
NCCC[C@H](N)C(=O)O | AncCDT-1 | Kd | 1200
N=C(N)NCCC[C@H](N)C(=O)O | AncCDT-1 | Kd | 320
N[C@@H](Cc1cnc[nH]1)C(=O)O | AncCDT-1 | Kd | 2300

Values from paper doi:10.1101/157495v1
